Origin of values: patent US20100120763A1

- System Under Test: PDE2A (Homo sapiens, UniProt O00408)
- Construct: made in house; host or cells: SF21 insect cells (baculovirus)
- Sequence (O00408 whole entry): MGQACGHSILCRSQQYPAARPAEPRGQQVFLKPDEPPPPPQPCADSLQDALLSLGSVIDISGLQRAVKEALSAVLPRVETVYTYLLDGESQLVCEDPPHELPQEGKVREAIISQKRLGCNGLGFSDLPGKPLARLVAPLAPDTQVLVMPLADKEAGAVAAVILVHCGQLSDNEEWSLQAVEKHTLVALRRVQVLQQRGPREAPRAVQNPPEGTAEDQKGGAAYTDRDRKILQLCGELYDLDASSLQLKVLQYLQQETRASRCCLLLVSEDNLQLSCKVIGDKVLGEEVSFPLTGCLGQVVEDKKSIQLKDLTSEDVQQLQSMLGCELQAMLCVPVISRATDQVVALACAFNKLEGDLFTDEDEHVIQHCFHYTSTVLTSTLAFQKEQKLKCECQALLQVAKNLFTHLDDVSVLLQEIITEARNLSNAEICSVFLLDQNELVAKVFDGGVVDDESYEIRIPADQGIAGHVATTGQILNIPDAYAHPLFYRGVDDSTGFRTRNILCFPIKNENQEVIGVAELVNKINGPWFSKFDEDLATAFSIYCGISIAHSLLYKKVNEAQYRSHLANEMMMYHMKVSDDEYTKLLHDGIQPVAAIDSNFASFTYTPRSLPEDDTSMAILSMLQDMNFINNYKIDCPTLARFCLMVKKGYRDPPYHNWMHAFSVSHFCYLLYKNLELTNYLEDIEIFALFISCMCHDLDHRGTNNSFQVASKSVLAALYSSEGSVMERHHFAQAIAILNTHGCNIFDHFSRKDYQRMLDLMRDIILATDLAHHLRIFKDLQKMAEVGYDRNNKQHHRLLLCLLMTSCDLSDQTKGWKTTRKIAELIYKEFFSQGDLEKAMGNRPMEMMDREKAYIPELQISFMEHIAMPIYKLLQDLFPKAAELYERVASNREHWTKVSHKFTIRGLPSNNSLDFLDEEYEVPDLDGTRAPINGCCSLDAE
- Protocol Details: Inhibition of recombinant PDE2A (expressed in baculovirus/SF21-cells), [3H]-cAMP SPA
- Format: biochemical
pIC50: −log10 of the molar value.
Label label 1 for high-side pIC50 (at or above 7) and label 0 for low-side pIC50 (below it).

Please review the entries below; each comes with its answer.
Entry Smiles	Label Value
COc1cc(F)cc2c1nnc1c(C)nc(-c3ccc(F)nc3C)n12	label 0
Cc1nc(-c2ccnn2C)n2c1nnc1ccc(F)cc12	label 0
COc1cc(F)c2nnc3c(C)nc(-c4ccc(F)cc4Cl)n3c2c1	label 1
Cc1nc(-c2cnccc2Cl)n2c1nnc1ccc(F)cc12	label 0
Cc1nc(-c2ccccc2C(N)=O)n2c1nnc1ccc(Cl)cc12	label 0
COc1cc(F)cc2c1nnc1c(C)nc(-c3cnccc3C)n12	label 0

Quick check, pIC50 >= 7? `COc1ccc2c(c1)nnc1c(C)nc(-c3ccccc3Cl)n12` label 1

Quick check, pIC50 >= 7? `COc1cccc2c1nnc1c(C)nc(-c3ccncc3C)n12` label 0

Quick check, pIC50 >= 7? `Cc1ncccc1-c1nc(C)c2nnc3ccc(Cl)cc3n12` label 1

Quick check, pIC50 >= 7? `COc1cc(OCc2ccccc2)cc2c1nnc1c(C)nc(-c3cnccc3C)n12` label 0
